- Test system: hLiMTs
- procedure.text: Combined HCI (HCS) and cellular ATP 3D assay in hLiMTs
- test.conditions: hLiMTs; all endpoints; Cmax max used
measure: hLiMTs Cmax max All

In [3]: df
Out[3]:
                                    compound  assayed_target              measure  recorded_value
 0   Cn1cnc([N+](=O)[O-])c1Sc1ncnc2nc[nH]c12          hLiMTs  hLiMTs Cmax max All             +ve
 1                        CC(=O)Nc1ccc(O)cc1          hLiMTs  hLiMTs Cmax max All             +ve
 2  Cc1cc2c(cc1CC(=O)c1sccc1S(=O)(=O)Nc1onc(C)c1Cl)OCO2          hLiMTs  hLiMTs Cmax max All             +ve
 3  CCN(CC)C(=O)/C(C#N)=C/c1cc(O)c(O)c([N+](=O)[O-])c1          hLiMTs  hLiMTs Cmax max All             +ve
 4  O=C1CN(/N=C/c2ccc(-c3ccc([N+](=O)[O-])cc3)o2)C(O)=N1          hLiMTs  hLiMTs Cmax max All             +ve
 5  COc1ccccc1Oc1c(NS(=O)(=O)c2ccc(C(C)(C)C)cc2)nc(-c2ncccn2)nc1OCCO          hLiMTs  hLiMTs Cmax max All             +ve
 6                  Clc1ccccc1CN1CCc2sccc2C1          hLiMTs  hLiMTs Cmax max All             +ve
 7  N[C@@H](Cc1cc(I)c(Oc2ccc(O)c(I)c2)c(I)c1)C(=O)O          hLiMTs  hLiMTs Cmax max All             -ve
 8  CCN(CC)CC#CCOC(=O)C(O)(c1ccccc1)C1CCCCC1 (stereo not shown)          hLiMTs  hLiMTs Cmax max All             -ve
 9  O=C1CC2(CCCC2)CC(=O)N1CCCCN1CCN(c2ncccn2)CC1 [buspirone, reference compound]          hLiMTs  hLiMTs Cmax max All             -ve
10  CN(C)CCCN1c2ccccc2Sc2ccc(Cl)cc21 [chlorpromazine, reference compound]          hLiMTs  hLiMTs Cmax max All             +ve
11  CCN(CC)CCNC(=O)c1c(C)[nH]c(/C=C2\C(=O)Nc3ccc(F)cc32)c1C          hLiMTs  hLiMTs Cmax max All             +ve
12  CCc1ccc(CCOc2ccc(CC3SC(=O)NC3=O)cc2)nc1 (stereo not shown) [pioglitazone, reference compound]          hLiMTs  hLiMTs Cmax max All             +ve
13  CN(Cc1cnc2nc(N)nc(N)c2n1)c1ccc(C(=O)N[C@@H](CCC(=O)O)C(=O)O)cc1 [methotrexate, reference compound]          hLiMTs  hLiMTs Cmax max All             +ve
14  O=C1CN(/N=C/c2ccc([N+](=O)[O-])o2)C(=O)N1 [nitrofurantoin, reference compound]          hLiMTs  hLiMTs Cmax max All             +ve
15  NC(=O)N1c2ccccc2C=Cc2ccccc21 [carbamazepine, reference compound]          hLiMTs  hLiMTs Cmax max All             +ve
16  CC(=O)N1CCN(c2ccc(OCC3COC(Cn4ccnc4)(c4ccc(Cl)cc4Cl)O3)cc2)CC1 (stereo not shown) [ketoconazole, reference compound]          hLiMTs  hLiMTs Cmax max All             +ve
17  CN(C)CCC(c1ccc(Cl)cc1)c1ccccn1 (stereo not shown)          hLiMTs  hLiMTs Cmax max All             -ve
18  O=c1[nH]c(=O)n([C@@H]2O[C@H](CO)[C@@H](O)[C@@H]2F)cc1I          hLiMTs  hLiMTs Cmax max All             +ve
